Kindly state % Inhibition for each of the entries shown.
system: P. falciparum stage V gametocytes; parameters: BacTiter-Glo ATP luminescence viability of purified stage V gametocytes in 384-well plates, per cent inhibition versus DMSO; settings: 48 h, 5 µM; inhibitor
In all, about 13,000 compounds went through this assay and about 3,200 (25%) showed an effect of 50% or more. This is one part of the list.
Answers are plain numbers, in %.

Recorded results for 5 compounds are shown here.
{"COMPOUND": "CN(C)CCOc1ccc2c(=O)cc(CCc3cccc(F)c3F)n(CC(=O)N(C)Cc3ccc(-c4ccc(C(F)(F)F)cc4)cc3)c2c1", "% Inhibition, %": 124.4}
{"COMPOUND": "Cc1noc(C)c1-c1cccc(CNCc2cccc(-c3cccc(-c4nc5cc(F)ccc5[nH]4)c3)c2)c1.O=C(O)C(F)(F)F", "% Inhibition, %": -20.89}
{"COMPOUND": "Cc1nnsc1C(=O)Nc1ccc(-c2cccc(-c3nc4c(C)cccc4[nH]3)c2)cc1", "% Inhibition, %": 78.56}
{"COMPOUND": "CCOC(=O)C(NC(=O)Cc1ccccc1)C(C)C (stereo not shown)", "% Inhibition, %": -5.463}
{"COMPOUND": "COc1ccc(-n2nc(C)cc2C(=O)NCc2ccc(-c3c(C)noc3C)cc2)cc1", "% Inhibition, %": 19.66}

Each compound below has a reported value. Please supply its % Inhibition.
1. CCCOc1ccc(C(=O)Nc2nonc2-c2ccc(OC)c(OC)c2)cc1
2. Cc1nnsc1C(=O)Nc1cccc(-c2ccc(-c3nc4ccccc4[nH]3)cc2)c1
3. CC(C)(CN)c1nc(-c2ccc(Br)c(O)c2)c(-c2ccncc2)[nH]1
4. COc1ccc(Cc2c(C)nc3nc(N)nc(N)c3c2C)cc1
5. CC(C)COc1ccc(C(O)C(CN2CCCCC2)c2ccccc2)cc1 (stereo not shown)
6. CCCCCCN1CCN(Cc2cccc(NC(=O)c3cccc(OCC)c3)c2)CC1

Result ::
1. 84.04
2. 11.59
3. -59.77
4. 3.866
5. 31.95
6. -30.42

Each compound below has a reported value. Please supply its % Inhibition.
1. O=c1cc(NCCCNCc2ccc(C(F)(F)F)s2)[nH]c2ccccc12
2. Cc1c(CNCCCNc2nc3ccncc3[nH]2)sc(Br)c1Br
3. CCOc1cc2c(cc1S(=O)(=O)c1ccc(COc3ccc(C(F)(F)F)cc3)cc1)CCN(C)CC2
4. Cc1cccc2[nH]c(-c3cccc(-c4ccc(NC(=O)c5cccc(C(N)=O)c5)cc4)c3)nc12
5. CC1(C)N=C(N)N=C(N)N1c1cc(Cl)c(Cl)cc1Cl
6. COc1ccc(-c2nonc2NC(=O)c2cccc(C)c2)cc1OC
7. O=C(Nc1ccc(N2CCCN(Cc3cccc(F)c3)CC2)cc1)c1ccccc1

Result ::
[-70.92, 32.17, 39.44, 3.68, -35.38, 77.34, -40.3]

Each compound below has a reported value. Please supply its % Inhibition.
1. COc1ccc2nccc([C@@H](O)CN3CCC(NC(=O)/C=C/c4c[nH]c5c(C)cccc45)CC3)c2c1
2. COc1cc(Cc2cnc(N)nc2N)ccc1OCC(=O)Nc1ccc(C)cc1
3. C=CCOc1ccc(C(=O)Nc2nonc2-c2ccc(OC)c(OC)c2)cc1

Result ::
[-6.826, 5.317, 71.05]
